B1: C8orf76 (parent)
chain: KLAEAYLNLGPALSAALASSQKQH

# Variants of: B1
# ASSAY SUMMARY: protein stability index of a GFP-peptide fusion (GPS, HEK-293T) (PSI 1-6); higher = more stable;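 further: lentivirally expressed fusions sorted by FACS into six bins by GFP to DsRed ratio, PSI derived from sequencing read proportions per bin multiplied by bin number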
# CONDITION DESCRIPTION: c terminus: a fixed tail appended
# Lookup of reported protein stability index keyed by entry
Give your answer as a number; write no unit.

S14D ... 2.06
L9Y ... 2.06
A16S ... 2.41
A15M ... 2.94

Now look at this entry.
Query L13G yields protein stability index of 2.65
